- Method Description: RP, 150 × 2.1 mm, 2.6 µm, 40 °C, 0.35 mL/min, estimated dead time 0.94 min; A: water + 0.1% formic acid, pH 3; B: acetonitrile + 0.1% formic acid, pH 3; gradient (min/%B) 0/0 1/0 12.5/100 14/100 14.2/0 15/0
- Run Parameters: stereoisomer not certain
A collection of molecules and their measured LC retention time

{"Molecule": "O=c1c(OC2OC(CO)C(O)C(O)C2O)c(-c2ccc(O)cc2)oc2cc(O)cc(O)c12 (stereo not drawn) [Kaempferol-3-O-glucoside]", "LC retention time / min": 5.95}
{"Molecule": "O=C1CC(c2ccc(O)cc2)Oc2cc(OC3OC(CO)C(O)C(O)C3O)cc(O)c21 (stereo not drawn) [Naringenin 7-O-glucoside]", "LC retention time / min": 6.02}
{"Molecule": "O=c1c(O)c(-c2ccc(OC3OC(CO)C(O)C(O)C3O)c(O)c2)oc2cc(O)cc(O)c12 (stereo not drawn) [Quercetin 4-O-glucoside]", "LC retention time / min": 6.09}
{"Molecule": "O=C(O)CNC(=O)c1ccccc1O [2-Hydroxyhippuric acid]", "LC retention time / min": 5.5}
{"Molecule": "O=c1cc(-c2ccc(O)c(O)c2)oc2cc(OC3OC(CO)C(O)C(O)C3O)cc(O)c12 (stereo not drawn) [Luteolin 7-glucoside]", "LC retention time / min": 5.68}
{"Molecule": "COC(=O)Cc1c[nH]c2ccccc12 [Methyl indole acetate]", "LC retention time / min": 8.01}
{"Molecule": "O=c1c(OC2OC(CO)C(O)C(O)C2O)c(-c2ccc(O)c(O)c2)oc2cc(O)cc(O)c12 (stereo not drawn) [Quercetin-3-O-galactoside]", "LC retention time / min": 5.66}
{"Molecule": "O=c1cc(O)c2ccccc2o1 [4-hydroxycoumarin]", "LC retention time / min": 6.51}

Where these numbers come from: the RepoRT retention time repository (doi:10.1016/j.foodchem.2021.129757)
